assay_overview: Toxicity liver stage against HepG2, at 10uM
Type: cell-based
Design: test concentration 10 uM, cell line HepG2-A16-CD81EGFP
particulars: human, HepG2-A16-CD81EGFP cells; read-out: INHIBITION
readout_name: cytotoxicity at 10 µM (%)
The figure you give is taken to be in %; do not add the unit.

Worked cases, cytotoxicity at 10 µM given:
molecule: CCS(=O)(=O)N1CCC(c2nnc(CN3CCCCC3)n2C)CC1
readout_name: cytotoxicity at 10 µM
test_value: -6.03
//
molecule: CC(Oc1ccccc1)C(=O)N1CCCN(Cc2nccn2C)CC1 (stereo not drawn)
readout_name: cytotoxicity at 10 µM
test_value: 0.471
//
molecule: CCS(=O)(=O)NCC(=O)NC1(C)CCc2ccccc2C1 (stereo not drawn)
readout_name: cytotoxicity at 10 µM
test_value: 2.22
//
molecule: CN1Cc2c(C(=O)N3CCOCC3)ncn2-c2ccccc2S1(=O)=O
readout_name: cytotoxicity at 10 µM
test_value: -1.58
//
molecule: CN(Cc1ccco1)Cc1ccccc1CNC(=O)c1cnccn1
readout_name: cytotoxicity at 10 µM
test_value: 17.1
//
molecule: CCOCC1CN(CC2CC2)Cc2cnn(C)c21 (stereo not drawn)
readout_name: cytotoxicity at 10 µM
test_value: -90.4
//
molecule: COCCCNC(=O)c1cc(-c2cnc(N3CCOCC3)nc2)cn1C
readout_name: cytotoxicity at 10 µM
test_value: -69.8
//
molecule: O=C(NCC1CC1)c1nc2c(o1)CN(CC1CC1)C2
readout_name: cytotoxicity at 10 µM
test_value: -147
//
molecule: O=C1CCCCCN1CCc1nc(-c2cccnn2)no1
readout_name: cytotoxicity at 10 µM
test_value: -1.75
//
molecule: Cc1cccc(CC(=O)N2CCCC(c3n[nH]c4nccnc34)C2)c1 (stereo not drawn)
readout_name: cytotoxicity at 10 µM
test_value: -8.52

Lookup: Using known records, supply cytotoxicity at 10 µM for Cc1ccc(C(CNC(=O)NCc2ccccn2)N2CCOCC2)o1 (stereo not drawn)
Found: -14.9

Lookup: Using known records, supply cytotoxicity at 10 µM for COc1ccc(C(=O)NC(CC(=O)O)c2cccs2)c(OC)c1 (stereo not drawn)
Found: -0.463

Lookup: Using known records, supply cytotoxicity at 10 µM for COCCNc1ccc(CNC(=O)C2COc3ccccc32)cc1 (stereo not drawn)
Found: -13.9

----------
Measured cytotoxicity at 10 µM accompanies every entry in the list below.
assay_overview: Toxicity liver stage against HepG2, at 10uM
Assay type: cell-based
Set-up: test concentration 10 uM, cell line HepG2-A16-CD81EGFP
particulars: human, HepG2-A16-CD81EGFP cells; read-out: INHIBITION
The figure you give is taken to be in %; do not add the unit.

Worked cases, cytotoxicity at 10 µM given:
compound: COCc1nnc(C(=O)N2CCC(N3CCCCC3)CC2)o1
cytotoxicity at 10 µM [%]: 10.2

compound: COc1cc2ncn(CC(=O)NCCCN(C)C)c(=O)c2cc1OC
cytotoxicity at 10 µM [%]: 10

--- query ---
Lookup: Using known records, supply cytotoxicity at 10 µM for CCOC(=O)C1=NOC(Cc2cc(OC)c3c(c2)OCO3)C1 (stereo not drawn)
Found: 9.98

----------
assay_overview: Toxicity liver stage against HepG2, at 10uM
Format: cell-based
Design: test concentration 10 uM, cell line HepG2-A16-CD81EGFP
particulars: human, HepG2-A16-CD81EGFP cells; read-out: INHIBITION
readout_name: cytotoxicity at 10 µM (%)
The figure you give is taken to be in %; do not add the unit.

Worked cases, cytotoxicity at 10 µM given:
compound: CCC(C)c1noc(C2CCN(C(=O)c3ccccn3)CC2)n1 (stereo not given)
readout_name: cytotoxicity at 10 µM
test_value: 4.59

compound: CCC(NCc1ccccc1Cl)c1ccccc1OCC(=O)NC (stereo not given)
readout_name: cytotoxicity at 10 µM
test_value: 13.3

compound: CC(C(=O)NCCN1CCCCC1)n1cncn1 (stereo not given)
readout_name: cytotoxicity at 10 µM
test_value: -3.37

compound: Cc1n[nH]/c(=N\C(=O)c2c3c(nc4onc(C)c24)CCC3)s1
readout_name: cytotoxicity at 10 µM
test_value: -1.88

--- query ---
Lookup: Using known records, supply cytotoxicity at 10 µM for "CC(C)COCc1cncc2c1CCN(C(=O)c1cscn1)C2"
Found: -108

----------
assay_overview: Toxicity liver stage against HepG2, at 10uM
Type: cell-based
Design: test concentration 10 uM, cell line HepG2-A16-CD81EGFP
particulars: human, HepG2-A16-CD81EGFP cells; read-out: INHIBITION
readout_name: cytotoxicity at 10 µM (%)
The figure you give is taken to be in %; do not add the unit.

Worked cases, cytotoxicity at 10 µM given:
compound: COC[C@H]1CC[C@@H]2[C@@H](CCN2Cc2ccco2)O1
readout_name: cytotoxicity at 10 µM
unit_abbrev: %
test_value: -137
//
compound: COc1cccc(-c2cnc3n2CCC32CCN(S(C)(=O)=O)CC2)c1
readout_name: cytotoxicity at 10 µM
unit_abbrev: %
test_value: -2.2

--- query ---
Lookup: Using known records, supply cytotoxicity at 10 µM for OC1CCN(Cc2c(C3CCCNC3)[nH]c3ncccc23)CC1 (stereo not drawn)
Found: -0.542

----------
Measured cytotoxicity at 10 µM accompanies every entry in the list below.
assay_overview: Toxicity liver stage against HepG2, at 10uM
Assay type: cell-based
Parameters: test concentration 10 uM, cell line HepG2-A16-CD81EGFP
particulars: human, HepG2-A16-CD81EGFP cells; read-out: INHIBITION
The figure you give is taken to be in %; do not add the unit.

molecule: CCC(=O)Nc1ccccc1Sc1nc(Br)nn1C
unit_abbrev: %
cytotoxicity at 10 µM: 3.28
//
molecule: c1ccc(CN2CC[C@@H]3O[C@H](COCc4ccncc4)CC[C@@H]32)nc1
unit_abbrev: %
cytotoxicity at 10 µM: 3.5
//
molecule: Cc1ccc(NC(=O)C2CSCN2C(=O)c2cc[nH]n2)c(C)c1 (stereo not drawn)
unit_abbrev: %
cytotoxicity at 10 µM: -6.1
//
molecule: CCn1ncc2c1C(COC)CN(Cc1cnn(C)c1)C2 (stereo not drawn)
unit_abbrev: %
cytotoxicity at 10 µM: 1.49
//
molecule: Cc1cc(C)n(CC2CCCN2C(=O)Cc2c(C)nc(C)[nH]c2=O)n1 (stereo not drawn)
unit_abbrev: %
cytotoxicity at 10 µM: -12.8
//
molecule: CN1CCN(c2ncc(CNCCCc3cccc(F)c3)cn2)CC1
unit_abbrev: %
cytotoxicity at 10 µM: -13.2
//
molecule: c1cnc2c(CN3CCCCC3c3ccncn3)cnn2c1 (stereo not drawn)
unit_abbrev: %
cytotoxicity at 10 µM: -10.2
//
molecule: CC(C)c1nnc(N2C[C@H]3CC[C@@H](C2)N(Cc2ccccc2)C3)s1
unit_abbrev: %
cytotoxicity at 10 µM: -3.86
//
molecule: CC(C)c1cc(C(=O)NCCN2CCCCC2CO)on1 (stereo not drawn)
unit_abbrev: %
cytotoxicity at 10 µM: 2.07
//
molecule: O=C(C1CCCO1)N1CCC(Cn2cc(C3CCCC3)nn2)CC1 (stereo not drawn)
unit_abbrev: %
cytotoxicity at 10 µM: 5.61

Lookup: Using known records, supply cytotoxicity at 10 µM for "NCc1ccnc(Oc2ccccc2)c1"
Found: 2.87

Lookup: Using known records, supply cytotoxicity at 10 µM for CC(NC(=O)NCCCn1cncn1)c1ccc(C#N)cc1 (stereo not drawn)
Found: -2.6

Lookup: Using known records, supply cytotoxicity at 10 µM for O=C(C1CCOC1)N1CCC2(CCNCC2)C1 (stereo not drawn)
Found: 7.62

Lookup: Using known records, supply cytotoxicity at 10 µM for "Cc1cccc(NC(=O)c2sccc2C)n1"
Found: -1.45

Lookup: Using known records, supply cytotoxicity at 10 µM for "COc1ccccc1OC1CCN(C(=O)c2cccc(O)c2C)CC1"
Found: 12.5

Lookup: Using known records, supply cytotoxicity at 10 µM for "CN1CCc2onc(CNc3ncccn3)c2C1"
Found: 1.58

Lookup: Using known records, supply cytotoxicity at 10 µM for "Cc1ccc(CN(C)C(=O)c2cccc(NC(N)=O)c2)o1"
Found: 14.2

Lookup: Using known records, supply cytotoxicity at 10 µM for Cc1cccc(Nc2cccc(C3CCCN(Cc4ncc[nH]4)C3)n2)n1 (stereo not drawn)
Found: -24.1

Lookup: Using known records, supply cytotoxicity at 10 µM for COc1cccc(CC(=O)N2Cc3nccn3CC(CN(C)C)C2)c1 (stereo not drawn)
Found: -135

Lookup: Using known records, supply cytotoxicity at 10 µM for "CC(C)Nc1ncccc1C(=O)NCc1ncc[nH]1"
Found: -7.9

Lookup: Using known records, supply cytotoxicity at 10 µM for "Cc1nc(-c2cnn(C)c2)sc1C(=O)NCc1cccc(CN(C)C)c1"
Found: 2.46

Lookup: Using known records, supply cytotoxicity at 10 µM for "Cc1ccc(-c2[nH]c3ccccc3c2C(=O)O)c(C)c1"
Found: 12.3

Lookup: Using known records, supply cytotoxicity at 10 µM for "Cc1csc(C(C)(C)NCCOc2ccc(CC#N)cc2)n1"
Found: 1.74

Lookup: Using known records, supply cytotoxicity at 10 µM for CCc1nc(C2CCCN2Cc2nnc(CC)o2)no1 (stereo not drawn)
Found: -5.36

Lookup: Using known records, supply cytotoxicity at 10 µM for "Cc1nnc(N2CCc3cncnc3C2)c(C#N)c1C"
Found: -154

Lookup: Using known records, supply cytotoxicity at 10 µM for "C[C@@H](N)C(=O)N1CC2(CCNCC2)c2cc(Cl)ccc21"
Found: -2.42

Lookup: Using known records, supply cytotoxicity at 10 µM for "Cc1ccn(Cc2nc(CC(C)C)no2)c(=O)c1"
Found: 6.21

Lookup: Using known records, supply cytotoxicity at 10 µM for "CCS(=O)(=O)Nc1ccn(Cc2ccc(F)cc2Cl)n1"
Found: 3.18

Lookup: Using known records, supply cytotoxicity at 10 µM for "CN(C)C[C@H]1OC[C@@H]2CCN(C(=O)c3ccc[nH]3)C[C@@H]21"
Found: 5.41

Lookup: Using known records, supply cytotoxicity at 10 µM for Cc1cc(C(F)(F)F)nc(CNC(=O)CCC2CCCN(C)C2)n1 (stereo not drawn)
Found: -53.9

Lookup: Using known records, supply cytotoxicity at 10 µM for "O=C(c1sccc1C1CC1)N1CCCN(c2cccnn2)CC1"
Found: -8.67

Lookup: Using known records, supply cytotoxicity at 10 µM for Cn1c(CN2CCOC(CNc3cccnn3)C2)nnc1C1CC1 (stereo not drawn)
Found: 5.18

Lookup: Using known records, supply cytotoxicity at 10 µM for "COc1cc(CN(C)Cc2cccnc2)c(SC)cc1OC"
Found: 2.3

Lookup: Using known records, supply cytotoxicity at 10 µM for "CO[C@H]1COCCN(Cc2c[nH]c3ccccc23)C1"
Found: 4.65

src = ChEMBL document CHEMBL4513216
